The values you see were collected from patent US6518303B2.

Quick list: Ratio COX-1/COX-2 per entry.
# targetOrTestSystem: COX-2 (Homo sapiens, UniProt P35354)
# Construct: incubated in the presence of LPS (10 μg/ml) for 24 h at 37° C. in order to induce The COX-2 expression; endogenous in cells; host or cells: fresh heparinized human whole blood, COX-2 induced with LPS for 24 h
# Sequence (P35354 18-604): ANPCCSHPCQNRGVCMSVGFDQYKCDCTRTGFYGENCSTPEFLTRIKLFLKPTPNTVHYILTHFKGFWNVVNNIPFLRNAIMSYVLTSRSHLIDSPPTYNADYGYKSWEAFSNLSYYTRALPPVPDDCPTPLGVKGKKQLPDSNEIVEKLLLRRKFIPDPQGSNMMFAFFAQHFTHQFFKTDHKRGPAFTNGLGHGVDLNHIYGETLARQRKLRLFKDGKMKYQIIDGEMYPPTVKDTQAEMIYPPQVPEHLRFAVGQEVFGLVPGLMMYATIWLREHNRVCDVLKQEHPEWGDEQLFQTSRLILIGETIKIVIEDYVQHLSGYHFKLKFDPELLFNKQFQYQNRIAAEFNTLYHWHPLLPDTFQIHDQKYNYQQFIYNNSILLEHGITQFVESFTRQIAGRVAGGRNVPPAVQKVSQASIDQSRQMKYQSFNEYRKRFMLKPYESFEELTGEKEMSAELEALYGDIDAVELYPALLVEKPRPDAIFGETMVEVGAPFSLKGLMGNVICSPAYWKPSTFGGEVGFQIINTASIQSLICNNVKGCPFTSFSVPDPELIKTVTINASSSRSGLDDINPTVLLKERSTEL
# assayRemarks: COX-2 activity in human whole blood (PGE2, LPS-induced)
# Assay type: cell-based
# appliedConditions: ratio of whole blood IC50 values

# smilesRepr, Ratio COX-1/COX-2
measured = [
    ("Cc1cc(=O)c(-c2ccccc2F)c(-c2ccc(S(C)(=O)=O)cc2)o1", ">66"),
    ("CS(=O)(=O)c1ccc(-c2oc(C(F)F)cc(=O)c2-c2ccc(Cl)cc2)cc1", ">47"),
    ("Cc1cc(=O)c(Oc2ccc(Cl)cc2)c(-c2ccc(S(C)(=O)=O)cc2)o1", ">285"),
    ("Cc1cc(=O)c(-c2ccc(Cl)cc2)c(-c2ccc(S(C)(=O)=O)cc2)o1", ">47"),
]
